Below, each entry is listed alongside its reported Minimum Inhibitory Concentration (activity).
test system: C. xeroses; assay type: cell-based, Corynebacterium xerosis
reported_metric: Minimum Inhibitory Concentration (activity) (µg/mL)

| entry_smiles | readout_unit | recorded_result |
| --- | --- | --- |
| CC(C)C[C@@H]1NC(=O)[C@H](CCCCN)NC(=O)[C@H](C(C)C)NC(=O)[C@@H]2CCCN2C(=O)[C@@H](Cc2ccc(O)cc2)NC(=O)[C@@H](CC(C)C)NC(=O)[C@H](CCCCN)NC(=O)[C@H](C(C)C)NC(=O)[C@H](CCCCN)NC(=O)[C@H](CC(C)C)NC(=O)[C@@H]2CCCN2C(=O)[C@@H](Cc2ccc(O)cc2)NC(=O)[C@H](C(C)C)NC(=O)[C@H](CCCCN)NC1=O | µg/mL | 3.1 |
| C[C@@H]1NC(=O)[C@H](CCCCN)NC(=O)[C@H](C)NC(=O)[C@@H]2CCCN2C(=O)[C@@H](Cc2ccc(O)cc2)NC(=O)[C@H](C)NC(=O)[C@@H](CCCCN)NC(=O)[C@H](C)NC(=O)[C@H](CCCCN)NC(=O)[C@H](C)NC(=O)[C@@H]2CCCN2C(=O)[C@@H](Cc2ccc(O)cc2)NC(=O)[C@H](C)NC(=O)[C@H](CCCCN)NC1=O | µg/mL | 200 |
| CC(C)C[C@@H]1NC(=O)[C@H](CCCCN)NC(=O)[C@H](C(C)C)NC(=O)[C@@H]2CCCN2C(=O)[C@@H](Cc2ccc(O)cc2)NC(=O)[C@H](CC(C)C)NC(=O)[C@H](CCCCN)NC(=O)[C@@H](C(C)C)NC(=O)[C@H](CCCCN)NC(=O)[C@H](CC(C)C)NC(=O)[C@@H]2CCCN2C(=O)[C@@H](Cc2ccc(O)cc2)NC(=O)[C@H](C(C)C)NC(=O)[C@H](CCCCN)NC1=O | µg/mL | 0.8 |
